system: 188146-221-R-J1-PDC complex spheroid viability; test: Anticancer human tumor 188146-221-R-J1-PDC patient-derived colon adenocarcinoma cell line growth inhibition [POLQ]; conditions: second compound 0.316 µM; first compound 3.16 µM; stronger effect = lower value;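 also: spheroids exposed to compounds for seven days; 100% = DMSO vehicle control viability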
experimental-endpoint: viability, T/C (%)
Provide the reading as a plain figure in %.

As a guide, the following entries are already answered.
{"columns": ["molecule", "uom", "viability, T/C"],
 "data": [
  ["CC(C)n1c(=O)n(C)c2cnc3cc(F)c(-c4ccc(OCCCN5CCCCC5)nc4)cc3c21 + COC1C(OC(N)=O)C(O)C(Oc2ccc3c(O)c(NC(=O)c4ccc(O)c(CC=C(C)C)c4)c(=O)oc3c2C)OC1(C)C", "%", 81.3],
  ["COc1cc2cc(C(=O)CCC(=O)O)sc2cc1OC + COC1C(OC(N)=O)C(O)C(Oc2ccc3c(O)c(NC(=O)c4ccc(O)c(CC=C(C)C)c4)c(=O)oc3c2C)OC1(C)C", "%", 95.6]
]}

Supply measured viability, T/C of CC1COCCN1c1cc(-c2ccnn2C)c2ccnc(-c3ccn[nH]3)c2n1 (stereo not given) + Nc1ccc(C#CCN(C(=O)Cc2ncc(C(F)(F)F)cc2C(F)(F)F)c2ccc(F)cc2)nn1 in your reply. 14.1

Query viability, T/C for Nc1ccn(C2OC(CO)C(O)C2(F)F)c(=O)n1 (stereo not given) + Nc1ccc(C#CCN(C(=O)Cc2ncc(C(F)(F)F)cc2C(F)(F)F)c2ccc(F)cc2)nn1 16.4

# return recorded viability, T/C for input COc1cc(C2c3cc4c(cc3C(OC3OC5COC(C)OC5C(O)C3O)C3COC(=O)C23)OCO4)cc(OC)c1O (stereo not given) + Cc1cccc(N(C)C(=O)C2C(O)CCN2c2nc(C)cc(C(F)(F)F)c2C#N)c1 26.4

Write down viability, T/C measured for item C#Cc1c(F)ccc2cc(O)cc(-c3ncc4c(N5CC6CCC(C5)N6)nc(OCC56CCCN5CC(F)C6)nc4c3F)c12 (stereo not given) + Cc1cccc(N(C)C(=O)C2C(O)CCN2c2nc(C)cc(C(F)(F)F)c2C#N)c1 93.2

Complete the entry with viability, T/C for CCc1cc2c(N3CCc4c(cc(Cn5ccnc5)cc4-c4cn(C)nc4C(F)(F)F)C3=O)cc(C)nc2c(OC)n1 + COC1C(OC(N)=O)C(O)C(Oc2ccc3c(O)c(NC(=O)c4ccc(O)c(CC=C(C)C)c4)c(=O)oc3c2C)OC1(C)C 62.4

meta.source: PubChem BioAssay AID1963851
